Experiment Notes: self-splicing fitness, log relative to wild type (ln ratio); higher = more splicing; Tetrahymena group I intron in knt gene, E. coli kanamycin selection, DiMSum; sequences stand for … in CUCUCU…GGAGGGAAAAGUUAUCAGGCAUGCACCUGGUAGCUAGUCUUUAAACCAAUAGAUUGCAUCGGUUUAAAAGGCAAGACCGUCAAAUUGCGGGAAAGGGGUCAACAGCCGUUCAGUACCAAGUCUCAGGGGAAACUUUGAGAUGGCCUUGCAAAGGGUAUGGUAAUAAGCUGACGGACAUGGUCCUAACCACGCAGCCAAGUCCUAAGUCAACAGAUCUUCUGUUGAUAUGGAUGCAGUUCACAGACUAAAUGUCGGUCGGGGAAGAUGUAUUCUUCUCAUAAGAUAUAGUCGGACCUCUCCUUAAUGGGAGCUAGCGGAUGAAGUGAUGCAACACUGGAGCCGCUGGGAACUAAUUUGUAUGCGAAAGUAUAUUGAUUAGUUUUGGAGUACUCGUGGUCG;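 also: selection with 25 µg/mL kanamycin versus none on LB agar overnight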
Recorded Conditions: 37 °C
Readout Name: self-splicing fitness (ln)
Returns: the value as a bare number; no unit string appended.

Here is how some sequences turned out for self-splicing fitness (ln).
[
  {
    "Seq String": "AUACAGCAAUAUUACGCCAG",
    "self-splicing fitness (ln)": -2.03
  },
  {
    "Seq String": "UUUCAGCAAUAUUACGCAGU",
    "self-splicing fitness (ln)": -1.59
  },
  {
    "Seq String": "CGUCAGCAAUAUUACGAUGU",
    "self-splicing fitness (ln)": -1.53
  }
]

// lookup self-splicing fitness (ln) for UUAGAGCAAUAUUACGGGGA
-1

----------
Experiment Notes: self-splicing fitness, log relative to wild type (ln ratio); higher = more splicing; Tetrahymena group I intron in knt gene, E. coli kanamycin selection, DiMSum; sequences stand for … in CUCUCU…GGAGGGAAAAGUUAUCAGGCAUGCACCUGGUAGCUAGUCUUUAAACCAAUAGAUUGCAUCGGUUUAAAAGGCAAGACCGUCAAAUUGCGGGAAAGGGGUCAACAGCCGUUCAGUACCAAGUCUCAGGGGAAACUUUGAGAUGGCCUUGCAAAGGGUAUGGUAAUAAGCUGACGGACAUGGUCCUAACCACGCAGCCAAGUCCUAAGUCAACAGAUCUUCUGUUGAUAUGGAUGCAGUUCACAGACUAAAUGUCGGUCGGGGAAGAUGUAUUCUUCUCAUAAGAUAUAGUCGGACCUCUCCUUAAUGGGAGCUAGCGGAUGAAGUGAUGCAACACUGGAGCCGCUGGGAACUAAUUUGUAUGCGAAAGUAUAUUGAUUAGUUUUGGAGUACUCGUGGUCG
Recorded Conditions: 37 °C
Readout Name: self-splicing fitness (ln)

[
  {
    "Seq String": "AAAUAGCAAUAUUACGUGGA",
    "self-splicing fitness (ln)": -2.11
  },
  {
    "Seq String": "AUGAAGCAAUAUUACGGCCC",
    "self-splicing fitness (ln)": 0.156
  }
]

// returns reported self-splicing fitness (ln) for input GCUCAGCAAUAUUACGUUUU
0.00509

Same again, this time with AACUAGCAAUAUUACGCUUA
-0.749

Would you kindly repeat that for CAACAGCAAUAUUACGACGC ?
-0.0606

Same thing, different sequence: UCAUAGCAAUAUUACGCAAA
-1.72

----------
Experiment Notes: self-splicing fitness, log relative to wild type (ln ratio); higher = more splicing; Tetrahymena group I intron in knt gene, E. coli kanamycin selection, DiMSum; sequences stand for … in CUCUCU…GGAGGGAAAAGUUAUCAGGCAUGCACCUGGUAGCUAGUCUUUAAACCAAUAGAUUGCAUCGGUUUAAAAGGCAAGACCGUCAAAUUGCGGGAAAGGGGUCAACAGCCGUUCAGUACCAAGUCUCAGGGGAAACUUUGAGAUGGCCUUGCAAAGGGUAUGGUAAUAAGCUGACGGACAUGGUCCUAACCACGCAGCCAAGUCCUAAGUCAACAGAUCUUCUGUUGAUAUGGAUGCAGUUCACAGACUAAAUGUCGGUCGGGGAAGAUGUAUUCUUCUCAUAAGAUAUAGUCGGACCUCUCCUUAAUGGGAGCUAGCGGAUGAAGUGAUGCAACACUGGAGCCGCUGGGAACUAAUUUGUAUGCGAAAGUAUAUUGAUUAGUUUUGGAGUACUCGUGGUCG
Recorded Conditions: 37 °C
self-splicing fitness (ln) vs -0.7: at or above is fulfilled, below is not fulfilled.

[
  {
    "Seq String": "UCAGAGCAAUAUUACGGGGU",
    "Label Class": "not fulfilled"
  }
]

Please tell me: is the sequence GGAUAGCAAUAUUACGUGGG at or over -0.7 in terms of self-splicing fitness (ln)?
fulfilled

Entry to check: GUCGAGCAAUAUUACGAUUU
fulfilled

Same question for AGCAAGCAAUAUUACGGCGA please.
fulfilled

Same question, UUAUAGCAAUAUUACGUGAG this time
fulfilled

Moving on to the next sequence: CAACAGCAAUAUUACGUUAU
not fulfilled

Follow-up entry: ACGUAGCAAUAUUACGACAG
not fulfilled

Entry to check: UGAGAGCAAUAUUACGCGUU
not fulfilled

Again, but for CUGGAGCAAUAUUACGUGUG
not fulfilled

----------
Experiment Notes: self-splicing fitness, log relative to wild type (ln ratio); higher = more splicing; Tetrahymena group I intron in knt gene, E. coli kanamycin selection, DiMSum; sequences stand for … in CUCUCU…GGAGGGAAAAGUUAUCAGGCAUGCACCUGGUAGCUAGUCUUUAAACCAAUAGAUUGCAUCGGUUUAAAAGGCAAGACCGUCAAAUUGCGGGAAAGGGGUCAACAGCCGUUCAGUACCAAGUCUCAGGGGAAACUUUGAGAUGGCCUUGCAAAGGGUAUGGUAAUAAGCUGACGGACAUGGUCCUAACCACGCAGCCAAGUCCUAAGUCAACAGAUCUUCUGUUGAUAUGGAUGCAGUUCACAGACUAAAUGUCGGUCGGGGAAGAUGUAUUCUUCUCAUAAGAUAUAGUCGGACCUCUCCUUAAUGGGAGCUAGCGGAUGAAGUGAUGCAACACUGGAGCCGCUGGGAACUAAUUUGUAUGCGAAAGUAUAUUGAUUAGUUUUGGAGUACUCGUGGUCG
Recorded Conditions: 30 °C
Catalogue of self-splicing fitness (ln) values
Write no unit; give the number alone.

Example entries begin here.
[
  {
    "Seq String": "AGACAGCAAUAUUACGAGAU",
    "Readout Name": "self-splicing fitness (ln)",
    "Reading": -2.88
  },
  {
    "Seq String": "AGCAAGCAAUAUUACGUACG",
    "Readout Name": "self-splicing fitness (ln)",
    "Reading": -1.99
  },
  {
    "Seq String": "GCAAAGCAAUAUUACGUUUC",
    "Readout Name": "self-splicing fitness (ln)",
    "Reading": -4.41
  },
  {
    "Seq String": "AUUGAGCAAUAUUACGCGCA",
    "Readout Name": "self-splicing fitness (ln)",
    "Reading": -1.48
  },
  {
    "Seq String": "AGUAAGCAAUAUUACGGCAC",
    "Readout Name": "self-splicing fitness (ln)",
    "Reading": -2.04
  },
  {
    "Seq String": "GGUGAGCAAUAUUACGACGU",
    "Readout Name": "self-splicing fitness (ln)",
    "Reading": -0.578
  },
  {
    "Seq String": "CUGCAGCAAUAUUACGAUAC",
    "Readout Name": "self-splicing fitness (ln)",
    "Reading": -2.99
  },
  {
    "Seq String": "UCACAGCAAUAUUACGCGAG",
    "Readout Name": "self-splicing fitness (ln)",
    "Reading": -1.32
  },
  {
    "Seq String": "UUGUAGCAAUAUUACGAAAG",
    "Readout Name": "self-splicing fitness (ln)",
    "Reading": -2.43
  },
  {
    "Seq String": "ACUGAGCAAUAUUACGCCUG",
    "Readout Name": "self-splicing fitness (ln)",
    "Reading": -2.36
  }
]

Recorded self-splicing fitness (ln) for UUAUAGCAAUAUUACGCUGG , please?
-1.35

Ok, now CGUCAGCAAUAUUACGGGAU
-4.7

Can you handle GACUAGCAAUAUUACGCCAU next?
-2.02

Here is the next sequence: GGGCAGCAAUAUUACGGGCU
-3.06

Would you mind doing AUGCAGCAAUAUUACGCCGU as well?
-1.25

Item: GGAAAGCAAUAUUACGUCUG
-0.579

----------
Experiment Notes: self-splicing fitness, log relative to wild type (ln ratio); higher = more splicing; Tetrahymena group I intron in knt gene, E. coli kanamycin selection, DiMSum; sequences stand for … in CUCUCU…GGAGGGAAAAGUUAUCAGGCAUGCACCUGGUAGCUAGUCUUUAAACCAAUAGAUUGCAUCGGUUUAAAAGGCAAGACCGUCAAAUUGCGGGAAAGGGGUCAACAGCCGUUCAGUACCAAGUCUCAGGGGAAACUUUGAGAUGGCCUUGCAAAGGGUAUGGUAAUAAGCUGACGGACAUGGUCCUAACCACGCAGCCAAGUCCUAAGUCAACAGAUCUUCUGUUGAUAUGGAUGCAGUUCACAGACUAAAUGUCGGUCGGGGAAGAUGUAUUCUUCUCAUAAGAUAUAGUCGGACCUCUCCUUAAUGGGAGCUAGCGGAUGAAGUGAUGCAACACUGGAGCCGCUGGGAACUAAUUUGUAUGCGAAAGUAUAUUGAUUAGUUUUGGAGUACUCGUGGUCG
Recorded Conditions: 30 °C
Our labelling divides records by self-splicing fitness (ln) into ranges: bucket A (below -3), bucket B (-3 to below -1), bucket C (-1 or more)

Worked set:
[
  {
    "Seq String": "CUAGAGCAAUAUUACGCUAC",
    "Label Class": "bucket B"
  },
  {
    "Seq String": "GGGAAGCAAUAUUACGAUCC",
    "Label Class": "bucket B"
  },
  {
    "Seq String": "AUAAAGCAAUAUUACGUGCA",
    "Label Class": "bucket C"
  }
]

Returns: class label. Input: ACAUAGCAAUAUUACGUACG
bucket B

Also, GUCUAGCAAUAUUACGAAUC please.
bucket B

Further, for AGUCAGCAAUAUUACGGUCU ?
bucket C

Also, GCGAAGCAAUAUUACGGAGG please.
bucket B

Here is the next sequence: UAUCAGCAAUAUUACGCAAC
bucket B

Let us now turn to CUAAAGCAAUAUUACGCCCC
bucket B

How about AAUUAGCAAUAUUACGCGCA ?
bucket C

Try this sequence next: UGGUAGCAAUAUUACGACUG
bucket C

Would you kindly repeat that for AGGUAGCAAUAUUACGCGUC ?
bucket B

Now the same for AAGUAGCAAUAUUACGUCGC
bucket B

Next sequence: UGUAAGCAAUAUUACGAAUC
bucket B

Proceed to UAUCAGCAAUAUUACGCGCC
bucket B

Same again, this time with CUGAAGCAAUAUUACGCGUC
bucket A

Input GUCUAGCAAUAUUACGGCUC
bucket C

How about this sequence: ACCUAGCAAUAUUACGGAGG
bucket B

Consider next the sequence GUGGAGCAAUAUUACGUCCG in the same way.
bucket A

Let us now turn to CCACAGCAAUAUUACGAUGG
bucket A

Note, next up: GCCGAGCAAUAUUACGUGAG
bucket B

Same read-out for UCAAAGCAAUAUUACGGUUG ?
bucket B
